System: acute heart failure model
Measurement Protocol: Evaluation of hemodynamics in acute heart failure model
Type: in vivo, beagle
Measurement Context: indication of preload; continuous iv
Readout Label: Left Ventricular End-Diastolic Pressure Change Ratio (%)

1) O=C(O)CCCCCCN1C(=O)CC[C@@H]1CC[C@@H](O)Cc1cccc(C(F)(F)F)c1 [Compound C] | −37
2) O=C(O)CCCSCCN1C(=O)CC[C@@H]1CC[C@@H](O)c1cccc(Oc2cccc(F)c2)c1 [Compound D] | −46
3) COCc1cccc(CC(O)/C=C/C2C(O)CC(=O)C2CCSCCCC(=O)OC)c1 (stereo not shown) [Compound B] | −41
4) O=C(O)CCCSCCN1C(=O)CC[C@@H]1/C=C/[C@@H](O)Cc1ccc(F)cc1 [Compound A] | −42
